- Tested system: Human M4 (Homo sapiens)
- Construct: expressed in transfected cells
- Test description: mAChR M4 cell-based functional assay (calcium flux, potentiation of EC20 acetylcholine response), hM4-Gqi5 CHO-K1 cells
- Protocol conditions: Table 4; potentiation of EC20 acetylcholine response, calcium flux, CHO-K1 cells; read-out: Human M4 EC50
pEC50: −log10 of the molar value.
Reported metric: pEC50

Compound	Tested system	pEC50
Cc1cc2nncn2nc1N1CCc2ncc(Nc3ccncc3F)cc2C1	Human M4 (Homo sapiens)	8.30
COCc1c(N2CCc3ncc(C(F)(F)F)cc3C2)nn2cnnc2c1C	Human M4 (Homo sapiens)	7.03
Cc1c(N2CCc3ncc(N4CCOC(c5cccnc5)C4)cc3C2)nn2c(C(F)(F)F)nnc2c1C (centres unmarked)	Human M4 (Homo sapiens)	6.21
Cc1c(C2CC2)c(N2CCc3ncc(N4CCO[C@H](C)C4)cc3C2)nn2cnnc12	Human M4 (Homo sapiens)	5.73
Cc1cc2nnc(C(F)(F)F)n2nc1N1CCc2ncc(N3CCOc4ncccc43)cc2C1	Human M4 (Homo sapiens)	6.82
Cc1c(N2CCc3ncc(N4CCO[C@H](C)C4)cc3C2)nn2c(C(F)(F)F)nnc2c1C	Human M4 (Homo sapiens)	6.53

1 = Cc1c(N2CCc3ncc(N4CC(C)Cn5nccc54)cc3C2)nn2c(C(F)(F)F)nnc2c1C (centres unmarked)
2 = Cc1cc2nncn2nc1N1Cc2cc(N3CCOCC3)cnc2C(C)C1 (centres unmarked)
query: Select the item whose pEC50 value is smaller, choosing between 1 and 2 . Answer by quoting the chosen item's label.
result: 2

---

- Tested system: Human M4 (Homo sapiens, UniProt P08173)
- Construct: expressed in transfected cells
- Sequence (P08173 whole entry): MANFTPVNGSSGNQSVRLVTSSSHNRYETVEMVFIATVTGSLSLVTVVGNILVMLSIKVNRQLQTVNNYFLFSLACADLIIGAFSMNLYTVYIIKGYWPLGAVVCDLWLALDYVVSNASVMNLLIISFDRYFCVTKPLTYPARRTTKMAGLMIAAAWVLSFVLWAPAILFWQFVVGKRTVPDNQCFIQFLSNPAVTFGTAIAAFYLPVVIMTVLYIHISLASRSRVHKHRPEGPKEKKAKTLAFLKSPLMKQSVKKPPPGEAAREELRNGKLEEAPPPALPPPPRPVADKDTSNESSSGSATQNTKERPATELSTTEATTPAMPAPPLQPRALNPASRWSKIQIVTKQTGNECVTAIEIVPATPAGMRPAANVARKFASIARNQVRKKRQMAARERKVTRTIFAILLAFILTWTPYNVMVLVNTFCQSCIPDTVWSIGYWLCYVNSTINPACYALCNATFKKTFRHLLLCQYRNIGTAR
- Test description: mAChR M4 cell-based functional assay (calcium flux, potentiation of EC20 acetylcholine response), hM4-Gqi5 CHO-K1 cells
- Protocol conditions: CHO-K1; % ACh maximum at 30 μM; human M4; read-out: Emax
Reported metric: Emax at 30 µM (%)

Guide cases for Emax at 30 µM, answers given:
Compound	Emax at 30 µM / %
Cc1c(N2CCc3ncc(Nc4cc(Cl)c(F)cc4F)cc3C2)nn2cnnc2c1C [Compound 45]	71
[2H]c1nnc2c(C)c(C)c(N3CCc4ncc(-c5cnn(CC6CC6)c5)cc4C3)nn12 [Compound 77]	89
Cc1c(N2CCc3ncc(Nc4c(F)cccc4C#N)cc3C2)nn2cnnc2c1C [Compound 46]	64
Cc1c(N2CCc3ncc(NCc4ccc(C(C)(C)O)cc4)cc3C2)nn2cnnc2c1C [Compound 17]	66
Cc1c(N2CCc3ncc(-c4cc[nH]c4)cc3C2)nn2cnnc2c1C [Compound 101]	98

I = Cc1cc2nncn2nc1N1CCc2ncc(-c3cnn(CC(C)C)c3)cc2C1 [Compound 147]
II = Cc1c(N2CCc3ncc(Oc4ccc5c(cnn5C)c4)cc3C2)nn2cnnc2c1C [Compound 8]
query: Which of the two gives a bigger number for Emax at 30 µM: I or II ? Answer by quoting the chosen item's label.
result: I
(I: 99%, II: 68%)

1 = Cc1cc2nccn2nc1N1CCc2ncc(-c3cncs3)cc2C1 [Compound 107]
2 = Cc1c(N2CCc3ncc(C(=O)N(C)Cc4ccco4)cc3C2)nn2cnnc2c1C [Compound 126]
query: Which of the two gives a bigger number for Emax at 30 µM: 1 or 2 ? Answer by quoting the chosen item's label.
result: 1
(1: 80%, 2: 55%)

---

- Tested system: Human M4 (Homo sapiens)
- Construct: expressed in transfected cells
- Test description: mAChR M4 cell-based functional assay (calcium flux, potentiation of EC20 acetylcholine response), hM4-Gqi5 CHO-K1 cells
- Protocol conditions: CHO-K1; % ACh maximum at 30 μM; human M4; read-out: Emax
Reported metric: Emax at 30 µM (%)

Compound	Numeric result
CCn1ccc(-c2cnc3c(c2)CN(c2nn4ccnc4cc2C)CC3)n1	81
Cc1cc2nncn2nc1N1CCc2ncc(-c3c(C)noc3C)cc2C1	86
Cc1cc2nncn2nc1N1CCc2ncc(-c3cnn(C4CC4)c3)cc2C1	89
Cc1cc2nccn2nc1N1CCc2ncc(-c3ccnn3C)cc2C1	83
Cc1c(N2CCc3ncc(-c4cncs4)cc3C2)nn2c(C)nnc2c1C	101
Cc1c(N2CCc3ncc(NCC4CCCO4)cc3C2)nn2cnnc2c1C (stereo not drawn)	75
Cc1c(N2CCc3ncc(-c4ccc(C(F)(F)F)nc4)cc3C2)nn2cnnc2c1C	85

P = Cc1nn(C)cc1-c1cnc2c(c1)CN(c1nn3cnnc3c(C)c1C)CC2
Q = Cc1cc2nncn2nc1N1CCc2ncc(-c3cnn(C4CCCCC4)c3)cc2C1
query: Which of the two gives a bigger number for Emax at 30 µM: P or Q ? Answer by quoting the chosen item's label.
result: P
(P: 93%, Q: 59%)

---

- Tested system: Human M4 (Homo sapiens)
- Construct: expressed in transfected cells
- Test description: mAChR M4 cell-based functional assay (calcium flux, potentiation of EC20 acetylcholine response), hM4-Gqi5 CHO-K1 cells
- Protocol conditions: hM4-Gqi5 CHO-K1 cells, calcium flux, PAM of EC20 acetylcholine; read-out: Human M4 EC50
pEC50: −log10 of the molar value.
Reported metric: pEC50

Guide cases for pEC50, answers given:
Cc1c(N2CCc3ncc(Nc4c(F)cccc4Cl)cc3C2)nn2cnnc2c1C 6.10
[2H]c1nnc2c(C)c(C)c(N3CCc4ncc(-c5c(C)noc5C)cc4C3)nn12 6.97
Cc1cc2nncn2nc1N1CCc2ncc(-c3c(C)noc3C)cc2C1 6.49
Cc1nn(C)cc1-c1cnc2c(c1)CN(c1nn3cnnc3c(C)c1C)CC2 6.84

1 = Cc1cc2nccn2nc1N1CCc2ncc(-c3c(C)nn(C)c3C)cc2C1
2 = Cc1c(N2CCc3ncc(Nc4cccnc4F)cc3C2)nn2cnnc2c1C
3 = Cc1cc(-c2cnc3c(c2)CN(c2nn4cnnc4c(C)c2C)CC3)cc(Cl)n1
4 = Cc1c(N2CCc3ncc(-c4cncs4)cc3C2)nn2c(C)nnc2c1C
query: Give the ascending ranking of the items by reported pEC50. Give me the labels in the order the question wants.
result: 3, 1, 4, 2

---

- Tested system: Human M4 (Homo sapiens, UniProt P08173)
- Construct: expressed in transfected cells
- Test description: mAChR M4 cell-based functional assay (calcium flux, potentiation of EC20 acetylcholine response), hM4-Gqi5 CHO-K1 cells
- Protocol conditions: CHO-K1; Table 4; Human M4; % ACh maximum at 30 μM; read-out: Emax (% ACh maximum at 30 μM)
Reported metric: Emax at 30 µM (%)

Guide cases for Emax at 30 µM, answers given:
Compound	U	Emax at 30 µM
Cc1c(N2CCc3ncc(Cc4cccc(F)c4)cc3C2)nn2cnnc2c1C	%	81
Cc1c(N2CCc3ncc(N4CCO[C@H](C)C4)cc3C2)nn2c(C(F)(F)F)nnc2c1C	%	82
Cc1c(N2CCc3ncc(N4CC5CC4CO5)cc3C2)nn2c(C(F)(F)F)nnc2c1C (stereo not shown)	%	78
Cc1c(N2CCc3ncc(N4CCN(C)C(=O)C4)cc3C2)nn2cnnc2c1C	%	52
Cc1ccc(Oc2cnc3c(c2)CN(c2nn4cnnc4cc2C)CC3)c(F)c1	%	81

I = [2H]C1([2H])Cc2ncc(Nc3cc(C)ncc3F)cc2C([2H])([2H])N1c1nn2cnnc2cc1C
II = Cc1c(N2CCc3ncc(Cc4cccc(F)c4)cc3C2)nn2c(C(F)(F)F)nnc2c1C
query: Which of the two gives a bigger number for Emax at 30 µM: I or II ? Answer by quoting the chosen item's label.
result: I
(I: 98%, II: 60%)

---

- Tested system: Human M4 (Homo sapiens, UniProt P08173)
- Construct: expressed in transfected cells
- Test description: mAChR M4 cell-based functional assay (calcium flux, potentiation of EC20 acetylcholine response), hM4-Gqi5 CHO-K1 cells
- Protocol conditions: Table 4; potentiation of EC20 acetylcholine response, calcium flux, CHO-K1 cells; read-out: Human M4 EC50
Reported metric: EC50 (nM)

Molecule	EC50 [nM]
Cc1cc(Nc2cnc3c(c2)CN(c2nn4cnnc4c(C)c2C)CC3)c(F)cn1 [Compound 363]	26
Cc1c(N2CCc3ncc(Cc4ccccc4F)cc3C2)nn2c(C(F)(F)F)nnc2c1C [Compound 309]	1410
FC(F)(F)c1cnc2c(c1)CN(c1nn3c(C(F)(F)F)nnc3c3ccccc13)CC2 [Compound 338]	5400
Cc1c(N2CCc3ncc(C(F)(F)F)cc3C2)nn2cnnc2c1C(F)(F)F [Compound 351]	1400

I = Cc1cc(Nc2cnc3c(c2)CN(c2nn4cnnc4cc2C)CC3)c(F)cn1 [Compound 362]
II = [2H]C1([2H])Cc2ncc(Nc3ccncc3F)cc2C([2H])([2H])N1c1nn2cnnc2cc1C [Compound 355]
query: Select the item whose EC50 value is smaller, choosing between I and II . Answer by quoting the chosen item's label.
result: II

A = Cc1c(N2CCc3ncc(N4CCOC(c5ccccn5)C4)cc3C2)nn2c(C(F)(F)F)nnc2c1C (centres unmarked) [Compound 327]
B = CCOC(=O)c1c(C)nc2c(C)c(C)c(N3CCc4ncc(C(F)(F)F)cc4C3)nn12 [Compound 339]
C = [2H]C1([2H])Cc2ncc(Nc3cc(C)ncc3F)cc2C([2H])([2H])N1c1nn2cnnc2cc1C [Compound 352]
D = Cc1c(N2CCc3ncc(N4CCOC[C@H]4C)cc3C2)nn2c(C(F)(F)F)nnc2c1C [Compound 314]
E = [2H]C1([2H])Cc2ncc(Nc3ccccc3F)cc2C([2H])([2H])N1c1nn2cnnc2cc1C [Compound 359]
query: Arrange by EC50, high to low. Give me the labels in the order the question wants.
result: B, A, D, C, E
